Below, each entry is listed with its recorded growth.
Tested on: PC-3 prostate
assay name: NCI-60 one-dose screen, 48 h (100 = growth as untreated, 0 = no growth, -100 = all killed)
measurement conditions: 10 µM unless noted
Procedure: Growth inhibition of the PC-3 human tumor cell line is measured as a screen for anti-cancer activity. Cells are grown in 96 well plates and exposed to the test compound for 48 hours. Compounds are tested at a single concentration, which is 10^-5 M for most compounds. The reported endpoint is percent growth (GI% or GIPRCNT), where numbers from 0 - 100% represent growth inhibition, and numbers from -100% - 0 represent cell death. For example, a value of 40 represents 60% growth inhibition. […]
Compounds without any hit were thinned out: in the full panel of roughly 83,000, 20% have a hit.
Answer with a number only, understood to be in %.

molecule: C=CCOC1=CC(=O)c2ccccc2C1=O
growth [%]: 85.9
//
molecule: CCOP(=O)(OCC)C1CP(=O)(c2ccccc2)CC(C)=C1Cl (centres undefined)
growth [%]: 90
//
molecule: NS(=O)(=O)c1cnccc1Sc1ccncc1S(N)(=O)=O
growth [%]: 94.9

Exercise: Quick check: growth on PC-3 prostate, item CCN1C(=O)N(CC)C2Nn3c(s/c(=C\c4ccc(Cl)cc4Cl)c3=O)=NC21 (centres undefined) ?
Key: 33.6

Exercise: Give the reported growth for CC1=CN2C(=O)C3C4=C(CCCC4)SC3N=C2CN1c1c(C)cccc1C (centres undefined) (system: PC-3 prostate).
Key: 63.4

Exercise: Lab note: need growth with PC-3 prostate for entry COc1cc2c(cc1-c1c(C)noc1C)ncc1nc(C3CCC(F)(F)CC3)n(C3CCC(OC(F)F)CC3)c12 (centres undefined) , please look it up.
Key: 41.8
